molecular target: Coagulation factor XII (Homo sapiens); assay: Inhibition of human coagulation factor beta 12a at 100 uM
The source made the active and inactive calls. No cut-off for these calls is given here.
readout: inhibition

C[C@@H](O)[C@H](NC(=O)c1ccc(OCc2ccccc2)cc1)C(=O)N[C@@H](CCc1ccccc1)C(=O)N(C)Cc1ccccc1    Active
Cc1ccc(CNC(=O)[C@H](CCc2ccccc2)NC(=O)[C@@H](NC(=O)C(=O)c2c[nH]c3ccccc23)[C@@H](C)O)cc1    Active
COc1ccc2c(c1)CC(C(=O)N[C@H](C(=O)N[C@@H](CCc1ccccc1)C(=O)NCc1ccc(C)cc1)[C@@H](C)O)CC2 (some centres undefined)    Active
C=CCNC(=O)[C@H](CCc1ccccc1)NC(=O)[C@@H](NC(=O)c1ccc(OCc2ccccc2)cc1)[C@@H](C)O    Active
